Tested on: HCT116
SETUP_CONDITIONS: 72 h; ICRF193 0 nM
Counter-ions that a name gives are not always drawn.
OBSERVABLE: IC50 cell viability

Example entries begin here.
MOLECULE | DATA_VALUE
CC[N+](CC)(CC(=O)Nc1c(C)cccc1C)Cc1ccccc1 [Denatonium benzoate] | > 45.8 µM
CS(=O)(=O)OC[C@H](O)[C@@H](O)COS(C)(=O)=O | > 45.8 µM
CCN(CC)CCNC(=O)c1cc(Cl)c(N)cc1OC [Metoclopramide] | > 45.8 µM
C[Se]CC[C@H](N)C(=O)O | > 45.8 µM

Value sought for every listed molecule: IC50 cell viability.
1. CCOc1ccc(C(=O)OCCN(CC)CC)cc1
2. CN1CCCN=C1/C=C/c1cccc(O)c1 [OXANTEL PAMOATE]
3. C[C@]12CC[C@@H]3c4ccc(OC(=O)c5ccccc5)cc4CC[C@H]3[C@@H]1CC[C@@H]2O [ESTRADIOL BENZOATE]
4. CO[C@H]1C[C@H](O[C@H]2[C@H](C)O[C@@H](O[C@@H]3/C(C)=C/C[C@@H]4C[C@@H](C[C@]5(C=C[C@H](C)[C@@H](C6CCCCC6)O5)O4)OC(=O)[C@@H]4C=C(C)[C@@H](O)[C@H]5OC/C(=C\C=C\[C@@H]3C)[C@]54O)C[C@@H]2OC)O[C@@H](C)[C@@H]1O
5. COC(=O)Nc1nc2cc([S+]([O-])c3ccccc3)ccc2[nH]1 (stereo unspecified)
6. CCC(=O)NC[C@@H]1C[C@H]1c1cccc2c1CCO2
7. CC(C)C[C@H]1C(=O)N2CCC[C@H]2[C@]2(O)O[C@](NC(=O)[C@@H]3C[C@@H]4c5cccc6[nH]cc(c56)C[C@H]4N(C)C3)(C(C)C)C(=O)N12 [Dihydroergocriptine]

["> 45.8 µM", "> 45.8 µM", "> 45.8 µM", "13 µM", "14.6 µM", "> 45.8 µM", "> 45.8 µM"]

Value sought for every listed molecule: IC50 cell viability.
1. CC(C)OC(=O)C(C(=O)OC(C)C)=C1SC=CS1 [Malotilate]
2. CC/C=C\C/C=C\C/C=C\C/C=C\C/C=C\C/C=C\CCC(=O)O
3. CCCCCCCCCCCCCCCC[N+](C)(C)C [Hexadecyltrimethylammonium bromide]
4. Cc1c[nH]c2ccccc12
5. Cc1c(-c2ccccc2)oc2c(C(=O)OCCN3CCCCC3)cccc2c1=O [Flavoxate hydrochloride]

["> 45.8 µM", "> 45.8 µM", "5.8 µM", "> 45.8 µM", "> 45.8 µM"]

---

Assignment: determine reported efficacy for the given compounds.
Tested on: HCT116
PROTOCOL_TEXT: efficacy (maximum % inhibition of viability vs DMSO); higher = more cytotoxic
SETUP_CONDITIONS: 72 h; ICRF193 200 nM
Where a name gives a salt, the structure may show the parent alone.
Answers are plain numbers, in %.

Example entries begin here.
COMPOUND | RESULT_UNIT | DATA_VALUE
Cc1cc(/C=C/c2ccc3cc(N(C)C)ccc3[n+]2C)c(C)n1-c1ccccc1 [PYRVINIUM PAMOATE] | % | 93.2
c1ccc2c(c1)Sc1ccccc1N2CC1CN2CCC1CC2 (stereo not drawn) | % | 96.8
O=C(CCCCCCC(=O)Nc1ccccc1)NO [Vorinostat (SAHA)] | % | 101
CNCCCN1c2ccccc2CCc2ccccc21 [Desipramine hydrochloride] | % | 47.5
Cc1ccc(C(=O)OCc2ccc([C@@H](CN)C(=O)Nc3ccc4cnccc4c3)cc2)c(C)c1 | % | 94.1
Cc1ccc2nc(N)[nH]c(=O)c2c1Sc1ccncc1 [NOLATREXED HCL] | % | 45.1
O=C(Oc1cccc2cccnc12)c1ccccc1 | % | 70.8
CCCC1CCCCN1 (racemic) | % | 66.1
COC(=O)[C@H](c1ccccc1Cl)N1CCc2sccc2C1 [Clopidogrel bisulfate] | % | 76.8
NCCNc1ccc(NCCN)c2c1C(=O)c1ccncc1C2=O [Pixantronemaleate] | % | 82.2

Value sought for every listed compound: efficacy.
1. COc1cc(NCc2ccc3nc(N)nc(N)c3c2C)cc(OC)c1OC [Trimetrexate]
2. C=C[C@@H]1C[C@]1(NC(=O)[C@@H]1C[C@@H](Oc2ncc(OC)c3ccc(Cl)cc23)CN1C(=O)[C@@H](NC(=O)OC(C)(C)C)C(C)(C)C)C(=O)NS(=O)(=O)C1CC1
3. CCOC(=O)C1=C(C)NC(C)=C(C(=O)OC)C1c1cccc(Cl)c1Cl (stereo not drawn)
4. CC(C)OC(=O)CCC/C=C\C[C@@H]1[C@@H](/C=C/[C@@H](O)COc2cccc(C(F)(F)F)c2)[C@H](O)C[C@@H]1O

1: 90.7; 2: 92.4; 3: 52; 4: 96.5

---

Tested on: HCT116
PROTOCOL_TEXT: efficacy (maximum % inhibition of viability vs DMSO); higher = more cytotoxic
SETUP_CONDITIONS: 72 h; ICRF193 200 nM
Counter-ions that a name gives are not always drawn.
OBSERVABLE: efficacy (%)
Give bare numbers, in %.

Example entries begin here.
MOLECULE | SYSTEM_UNDER_TEST | OBSERVABLE | DATA_VALUE
CCOc1ccc2nc3cc(N)ccc3c(N)c2c1 [Ethacridine lactate hydrate] | HCT116 | efficacy | 50.6
COc1cc2nc(N3CCN(C(=O)c4ccco4)CC3)nc(N)c2cc1OC | HCT116 | efficacy | 42.5
CCCCC(=O)O | HCT116 | efficacy | 62
COC(=O)[C@H]1[C@H]2C[C@@H]3c4[nH]c5cc(OC)ccc5c4CCN3C[C@H]2C[C@@H](OC(=O)/C=C/c2ccc(O)c(OC)c2)[C@@H]1OC | HCT116 | efficacy | 106
Cc1cc(N)c2ccccc2[n+]1CCCCCCCCCC[n+]1c(C)cc(N)c2ccccc21 [Dequalinium dichloride] | HCT116 | efficacy | 55.3

Value sought for every listed molecule: efficacy.
1. O=c1[nH]c(=O)n([C@H]2C[C@H](O)[C@@H](CO)O2)cc1C(F)(F)F
2. CO/N=C1\C[C@]2(C[C@@H]3C[C@@H](C/C=C(\C)C[C@@H](C)/C=C/C=C4\CO[C@@H]5[C@H](O)C(C)=C[C@@H](C(=O)O3)[C@]45O)O2)O[C@H](/C(C)=C/C(C)C)[C@H]1C
3. COC(=O)C[C@](O)(CCCC(C)(C)O)C(=O)O[C@@H]1C(OC)=C[C@]23CCCN2CCc2cc4c(cc2[C@H]13)OCO4 [Omacetaxine mepesuccinate]
4. CN1CCC(CN2c3ccccc3Sc3ccccc32)C1 (configuration not stated) [Methdilazine hydrochloride]
5. CN(C)CCCN1c2ccccc2Sc2ccccc21 [Promazine hydrochloride]
6. CC(CCc1ccccc1)NC(C)C(O)c1ccc(O)cc1 (configuration not stated)

[59, 111, 66.3, 53.5, 46.3, 40.7]

Value sought for every listed molecule: efficacy.
1. NS(=O)(=O)c1cc2c(cc1C(F)(F)F)NC(Cc1ccccc1)NS2(=O)=O (configuration not stated) [Bendroflumethiazide]
2. Clc1cccc(Cl)c1NC1=NCCN1
3. O=c1[nH]cc(F)c(=O)[nH]1
4. N=C(NCCCCCCNC(=N)NC(=N)Nc1ccc(Cl)cc1)NC(=N)Nc1ccc(Cl)cc1

1. 68.8
2. 68.5
3. 55.4
4. 103

Value sought for every listed molecule: efficacy.
1. Cc1ccc(NC(=O)c2ccc(CN3CCN(C)CC3)cc2)cc1Nc1nc(-c2cccnc2)cs1
2. Nc1nc2ccc(OC(F)(F)F)cc2s1

66.8
46.2

---

System: HCT116
PROTOCOL_TEXT: efficacy (maximum % inhibition of viability vs DMSO); higher = more cytotoxic
SETUP_CONDITIONS: 72 h; ICRF193 200 nM
OBSERVABLE: efficacy (%)
One number for each entry, in %.

COMPOUND | RESULT_UNIT | DATA_VALUE
CC[C@@]1(O)C[C@H](O[C@H]2C[C@H](N(C)C)[C@H](O[C@H]3C[C@H](O)[C@H](O[C@H]4CCC(=O)[C@H](C)O4)[C@H](C)O3)[C@H](C)O2)c2c(cc3c(c2O)C(=O)c2c(O)cccc2C3=O)[C@H]1C(=O)OC [Aclarubicin] | % | 112
Nc1ncn([C@@H]2O[C@H](CO)[C@@H](O)[C@H]2O)c(=O)n1 [5-Azacitidine] | % | 98.6
Cc1cc(O)c2ccccc2c1O [Menadiol] | % | 41.5

Value sought for every listed compound: efficacy.
1. Oc1c(I)cc(I)c2cccnc12 [Iodoquinol]
2. C[C@]12CC[C@H]3[C@@H](CCC4=CC(=O)CC[C@@H]43)[C@@H]1CC[C@@H]2OC(=O)CCc1ccco1 [Nandrolone furylpropionate]

1. 91.7
2. 88

---

Assignment: determine reported IC50 cell viability for the given compounds.
System: HCT116
SETUP_CONDITIONS: 72 h; ICRF193 200 nM
Counter-ions that a name gives are not always drawn.

COMPOUND | IC50 cell viability
COc1ccc(C(=O)N2CCN(c3ccc4c(c3)CCC(=O)N4)CC2)cc1OC | > 45.8 µM
Cc1ccc(Sc2ccccc2N2CCNCC2)c(C)c1 | > 45.8 µM
CC1(C)O[C@@H]2C[C@H]3[C@@H]4C[C@H](F)C5=CC(=O)C=C[C@]5(C)[C@@]4(F)[C@@H](O)C[C@]3(C)[C@]2(C(=O)CO)O1 [Fluocinolone acetonide] | > 45.8 µM
CCC(C)(C)OC(=O)N[C@@H](Cc1c[nH]c2ccccc12)C(=O)N[C@@H](CCSC)C(=O)N[C@@H](CC(=O)O)C(=O)N[C@@H](Cc1ccccc1)C(N)=O | > 45.8 µM
CC/C=C\C/C=C\C/C=C\C/C=C\C/C=C\CCCC(=O)OCC | > 45.8 µM
CC(C)=CCC/C(C)=C/CC/C(C)=C/CCC(=O)OC/C=C(\C)CCC=C(C)C [Gefarnate] | > 45.8 µM
OCc1ccc(Cl)cc1Cl | > 45.8 µM
COc1nc(C)nc(Cl)c1NC1=NCCN1 [Moxonidine hydrochloride hydrate] | > 45.8 µM

Value sought for every listed compound: IC50 cell viability.
1. CN(C)C(=O)C(CCN1CCC(O)(c2ccc(Cl)cc2)CC1)(c1ccccc1)c1ccccc1 [Loperamide hydrochloride]
2. Cc1c(O)c(=O)ccn1C
3. CC(C)OC(=O)CCC/C=C\C[C@@H]1[C@@H](CC[C@@H](O)CCc2ccccc2)[C@H](O)C[C@@H]1O

1. 18.3 µM
2. > 45.8 µM
3. > 45.8 µM

Value sought for every listed compound: IC50 cell viability.
1. CC[C@H]1OC(=O)[C@H](C)C(=O)[C@H](C)[C@@H](O[C@@H]2O[C@H](C)C[C@H](N(C)C)[C@H]2O)[C@](C)(OC)C[C@@H](C)C(=O)[C@H](C)[C@H]2N(CCCCn3cnc(-c4cccnc4)c3)C(=O)O[C@]12C
2. Nc1ccc2cc3ccc(N)cc3nc2c1 [Proflavin hemisulfate]
3. O=c1n(CCCN2CCN(c3cccc(Cl)c3)CC2)nc2ccccn12 [Trazodone hydrochloride]
4. O=c1c(C2CC(c3ccc(-c4ccc(Br)cc4)cc3)Cc3ccccc32)c(O)sc2ccccc12 (stereo not given)

> 45.8 µM
29.1 µM
> 45.8 µM
18.3 µM
